Assay: chemical genetic growth profiling, strain panel (AID 1159580);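 note: tested at 20 µM; growth read once vehicle control cultures reached saturation at 30 °C; 1 = growth at the plate median or of vehicle wells; lower values mean less growth of the strain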
Settings: S. cerevisiae deletion strains, growth OD, locus YCR088W, strain abp1
Screen size: about 5,500 compounds; about 2,000 (36%) were called active. Roughly 18% stayed inconclusive and do not appear here. Cut-off read from the data, not from the text of the source: active = normalized growth mostly below about 0.91 (no sharp cut-off); inconclusive = no clear call, values can overlap the other calls; inactive = mostly above about 0.92. This is one part of the list.
Pick from active, inactive when you respond.

Use the examples below as a reference point.
>  <compound>
CCCC1O[C@@H]2CC3C4CCC5=CC(=O)C=CC5(C)C4[C@@H](O)CC3(C)[C@]2(C(=O)CO)O1 (stereo partly specified)

>  <classification>
inactive

$$$$
>  <compound>
CC(=O)Nc1cc([As](=O)(O)O)ccc1O

>  <classification>
inactive

$$$$
>  <compound>
CC(C)=CCC/C(C)=C/CC/C(C)=C/CC/C(C)=C/CC/C(C)=C/CC/C(C)=C/CC/C(C)=C/CC/C(C)=C/CC/C(C)=C/CO

>  <classification>
inactive

$$$$

Request: // return assay outcome for CCCCC(CC)CN1CN(CC(CC)CCCC)CC(C)(N)C1 (stereo unspecified)
Result: active

Request: // return assay outcome for "CC(=O)Nc1ccc(S(=O)(=O)c2ccc(NC(C)=O)cc2)cc1"
Result: inactive

Request: // return assay outcome for "O=[N+]([O-])c1ccc(O)c([N+](=O)[O-])c1"
Result: active

---

Assay: chemical genetic growth profiling, strain panel (AID 1159580)
Conditions: S. cerevisiae deletion strains, growth OD, locus YLR258W, strain gsy2, active compounds read low
About 2,000 (36%) of roughly 5,500 compounds were called active. Roughly 18% stayed inconclusive and do not appear here. This is one part of the list.
Mark class 1 only when normalized growth stays strictly below 1. Values equal to the cut-off are class 0.

>  <compound>
Nc1ccc(C(=O)NCC(=O)O)cc1

>  <classification>
class 0

$$$$

Turning to the following compound.
Request: Check if normalized growth falls below 1 for "OC[C@@H]1CCCN2CCCC[C@H]12" .
Result: class 0

---

Test: chemical genetic growth profiling, strain panel (AID 1159580);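 note: tested at 20 µM; growth read once vehicle control cultures reached saturation at 30 °C; 1 = growth at the plate median or of vehicle wells; lower values mean less growth of the strain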
Details: S. cerevisiae deletion strains, growth OD, locus YPR167C, strain met16, active compounds read low
About 2,000 (36%) of roughly 5,500 compounds were called active. About 18% were inconclusive and are not listed. This is one part of the list.
Mark label 1 only when normalized growth stays strictly below 1. Values equal to the cut-off are label 0.

Use the examples below as a reference point.
>  <molecule>
C=CC(C1=CC(=O)C=CC1=O)c1ccccc1 (stereo not given)

>  <classification>
label 1

$$$$
>  <molecule>
C=CC(C1=CC(=O)C(OC)=CC1=O)c1ccccc1 (stereo not given)

>  <classification>
label 1

$$$$
>  <molecule>
CO[C@H]1/C=C/O[C@@]2(C)Oc3c(C)c(O)c4c(O)c(c(/C=N/N5CCN(C)CC5)c(O)c4c3C2=O)NC(=O)/C(C)=C\C=C\C(C)[C@H](O)[C@@H](C)[C@@H](O)[C@@H](C)[C@@H](OC(C)=O)[C@@H]1C (stereo not given in full)

>  <classification>
label 0

$$$$
>  <molecule>
C=CC(C1=CC(=O)C(OC)=CC1=O)c1ccc(OC)cc1 (stereo not given)

>  <classification>
label 1

$$$$

Request: Check if normalized growth falls below 1 for "COc1cc2c(c(OC)c1OC)-c1ccc(OC)c(=O)cc1[C@@H](NC(C)=O)CC2" .
Result: label 0

---

Experiment: chemical genetic growth profiling, strain panel (AID 1159580);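 note: tested at 20 µM; growth read once vehicle control cultures reached saturation at 30 °C; 1 = growth at the plate median or of vehicle wells; lower values mean less growth of the strain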
Conditions: S. cerevisiae deletion strains, growth OD, locus YJL166W, strain qcr8, active compounds read low
Screen size: about 5,500 compounds; about 2,000 (36%) were called active. Inconclusive results (about 18%) are left out. Some of the results follow.
Mark true only when normalized growth stays strictly below 1. Values equal to the cut-off are false.

>  <compound>
CC/C(=C(\c1ccccc1)c1ccc(OCCN(C)C)cc1)c1ccccc1

>  <classification>
true

$$$$

Request: Check if normalized growth falls below 1 for CC1(C)C(C(Cl)Cl)C2(Cl)C(Cl)C(Cl)C1(Cl)C2(Cl)Cl (configuration not stated) .
Result: true

Request: Check if normalized growth falls below 1 for O=C1O[C@H](C(O)CO)C(O)=C1O (some centres not stated) .
Result: true

Request: Check if normalized growth falls below 1 for "O[N+]1=CC=CCC1=S.On1ccccc1=S.[Zn]" .
Result: true

Request: Check if normalized growth falls below 1 for "O=C(O)c1ccccc1Nc1cccc(C(F)(F)F)c1" .
Result: true

Request: Check if normalized growth falls below 1 for "CCCCC1=NC2(CCCC2)C(=O)N1Cc1ccc(-c2ccccc2-c2nn[nH]n2)cc1" .
Result: false

Request: Check if normalized growth falls below 1 for C=CCC1(C(C)CCC)C(=O)N=C(S)NC1=O (configuration not stated) .
Result: true

Request: Check if normalized growth falls below 1 for "Oc1c(I)cc(Cl)c2cccnc12" .
Result: true

Request: Check if normalized growth falls below 1 for CC(=O)O[C@@H]1C[C@@]2(C)[C@H](c3ccoc3)C[C@H]3O[C@]32[C@]2(C)C(=O)C(O)=C3C(C)(C)C(=O)C=C[C@]3(C)C12 (some centres not stated) .
Result: true

Request: Check if normalized growth falls below 1 for CCC(Cc1c(I)cc(I)c(N)c1I)C(=O)O (configuration not stated) .
Result: true

Request: Check if normalized growth falls below 1 for C=CC(C1=CC(=O)C(OC)=CC1=O)c1ccccc1 (configuration not stated) .
Result: true

Request: Check if normalized growth falls below 1 for "O=C(O)c1ccccc1Nc1ccccc1" .
Result: true

Request: Check if normalized growth falls below 1 for "CN(C)CCOc1ccc(/C(=C(/CCCl)c2ccccc2)c2ccccc2)cc1" .
Result: true

Request: Check if normalized growth falls below 1 for "Nc1ccc(C(=O)NCC(=O)O)cc1" .
Result: false

Request: Check if normalized growth falls below 1 for Nc1ncnc2c1ncn2C1C[C@H](O)[C@@H](CO)O1 (some centres not stated) .
Result: false

Request: Check if normalized growth falls below 1 for "COc1ccc(C(Cl)=C(c2ccc(OC)cc2)c2ccc(OC)cc2)cc1" .
Result: false

Request: Check if normalized growth falls below 1 for "C[n+]1cccc(C(=O)[O-])c1" .
Result: true

---

For each of the compounds below, state its normalized growth.
Assay: chemical genetic growth profiling, strain panel (AID 1159580);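 note: tested at 20 µM; growth read once vehicle control cultures reached saturation at 30 °C; 1 = growth at the plate median or of vehicle wells; lower values mean less growth of the strain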
Conditions: S. cerevisiae deletion strains, growth OD, locus YDL192W, strain arf1, active compounds read low
Screen size: about 5,500 compounds; about 2,000 (36%) were called active. Another 18% or so got no clear call; they are omitted. The list shows a part of the results.
One number for each entry.

Examples with answers:
>  <compound>
Nc1ccc(S(=O)(=O)Nc2ccccn2)cc1

>  <reported_measurement>
0.996

$$$$
>  <compound>
CCCCC1(COC(=O)CCC(=O)O)C(=O)N(c2ccccc2)N(c2ccccc2)C1=O

>  <reported_measurement>
1.01

$$$$
>  <compound>
CC1(C)C(O)CC(O)C2(C)C1CC(=O)C1(C)C2CCC2(C)C(C(=O)O)OC(=O)C3OC321 (configuration not stated)

>  <reported_measurement>
1

$$$$
>  <compound>
COc1cc(OC)c2c(=O)c(-c3ccccc3)c(C)oc2c1OC

>  <reported_measurement>
0.995

$$$$
>  <compound>
CN/C(=C\[N+](=O)[O-])NCCSCc1ccc(CN(C)C)o1

>  <reported_measurement>
0.989

$$$$

Provide the reported normalized growth of each entry below, same order.
1. O=C(O)CCCCC1CCSS1 (configuration not stated)
2. CCOP(=S)(OCC)SCn1c(=O)oc2cc(Cl)ccc21
3. c1ccc2c3c([nH]c2c1)CNCC3

Result:
1: 0.979; 2: 0.989; 3: 0.997

Provide the reported normalized growth of each entry below, same order.
1. O=[N+]([O-])c1cc([As](=O)(O)O)ccc1O
2. CC1(C)C(=O)C=CC2(C)C3CCC4(C)C(c5ccoc5)CC5OC54C3C(O)CC12 (configuration not stated)
3. O=[N+]([O-])c1cc(O)c(O)c([N+](=O)[O-])c1
4. CC(=O)O[C@@H]1CC2C(C)(C)C(=O)CC[C@]2(C)C2CC[C@]3(C)C(=CC(=O)O[C@H]3c3ccoc3)[C@@]21C (some centres not stated)
5. O[N+]1=CC=CCC1=S.On1ccccc1=S.[Zn]
6. CC1(C)C(O)CC(O)C2(C)C1CC(O)C1(C)C2CCC2(C)C(c3ccoc3)CC3OC321 (configuration not stated)
7. NCCNC(=O)c1ccc(Cl)cc1

Result:
[0.214, 0.986, 0.988, 0.971, 0.0611, 1, 0.973]

Provide the reported normalized growth of each entry below, same order.
1. O=[N+]([O-])c1ccc(O)c([N+](=O)[O-])c1
2. CC(=O)O[C@@H]1CC2C(C)(C)C=CC(=O)[C@]2(C)C2CC[C@@]3(C)[C@H](c4ccoc4)OC(=O)C4OC43[C@@]21C (some centres not stated)

Result:
1: 0.759; 2: 1
